Please respond with reported Activity for every item in the list.
- System: Mus musculus
- test summary: Toxicity in mouse P388 cells allografted BDF1 mouse assessed as body weight difference at 25 mg/kg administered 24 hrs post challenge relative to control
- Format: organism-based
- Parameters: dose 25 mg/kg
- measurement setup: in vivo
Numbers only, in g.

Sample CCCNCCNc1ccc(NCCNCCC)c2c1C(=O)c1ccccc1C2=O ; Activity observed: -0.8

Hi there! I need Activity for each item below, if you can.
1. O=C1c2ccccc2C(=O)c2c(NCCN3CCCCC3)ccc(NCCN3CCCCC3)c21
2. O=C1c2ccccc2C(=O)c2c(NCCNCCNCCO)ccc(NCCNCCNCCO)c21

Result:
[-3.6, -1.6]

# batch: return Activity for each of the 2 molecules below
1. O=C1c2ccccc2C(=O)c2c(NCCSCCO)ccc(NCCSCCO)c21
2. CCNCCNc1ccc(NCCNCC)c2c1C(=O)c1ccccc1C2=O

Result:
-1.6
-4.8

// input: 5 molecules below; output: Activity for each
1. NCCNc1ccc(NCCN)c2c1C(=O)c1ccccc1C2=O
2. O=C1c2ccccc2C(=O)c2c(NCCCNCCO)ccc(NCCCNCCO)c21
3. O=C1c2ccccc2C(=O)c2c3c(cc(NCCNCCO)c21)N(CCO)CCN3
4. O=C1c2ccccc2C(=O)c2c(NCCCCCO)ccc(NCCCCCO)c21
5. O=C1c2ccccc2C(=O)c2c(NCCN3CCNCC3)ccc(NCCN3CCNCC3)c21

Result:
1: -2.6; 2: -2.1; 3: -3.2; 4: -1.4; 5: -1

###

- Tested on: P388
- test summary: Antitumor activity against mouse P388 cells allografted in BDF1 mouse assessed as mouse survival at 50 mg/kg administered 24 hrs post challenge relative to control
- Type: functional, organism-based
- Set-up: dose 50 mg/kg
Calls of active or inactive are those of the source. No cut-off for these calls is given here.
measured quantity: Activity

Sample answers from the record:
Kindly note: P388, O=C1c2ccccc2C(=O)c2c(NCCCNCCO)ccc(NCCCNCCO)c21 , Activity value reported: Active

Hey, P388 data for CCCNCCNc1ccc(NCCNCCC)c2c1C(=O)c1ccccc1C2=O : Activity came out at Active

I looked up O=C1c2ccccc2C(=O)c2c(NCCNCCNCCO)ccc(NCCNCCNCCO)c21 and its Activity for P388 was Active

Observed Activity, P388, O=C1c2ccccc2C(=O)c2c(NCCCCCO)ccc(NCCCCCO)c21 : Active

Test item O=C1c2ccccc2C(=O)c2c(NCCSCCO)ccc(NCCSCCO)c21 ; P388; reported Activity was Active

Continue with the compound presented below.
Noted Activity for O=C1c2ccccc2C(=O)c2c(NCCN3CCCCC3)ccc(NCCN3CCCCC3)c21 , tested on P388: Active

###

- Test system: Mus musculus
- test summary: Toxicity in mouse P388 cells allografted BDF1 mouse assessed as body weight difference at 6.25 mg/kg administered 24 hrs post challenge relative to control
- Format: organism-based
- Design: dose 6.25 mg/kg
- measurement setup: in vivo
measured quantity: Activity (g)
Give bare numbers, in g.

Reference set (3 entries):
# compound CCNCCNc1ccc(NCCNCC)c2c1C(=O)c1ccccc1C2=O ; its Activity = -2.2

Looking up O=C1c2ccccc2C(=O)c2c(NCCN3CCNCC3)ccc(NCCN3CCNCC3)c21 , I found its Activity recorded as -0.4

For reference, reported Activity for O=C1c2ccccc2C(=O)c2c(NCCCNCCO)ccc(NCCCNCCO)c21 stands at 0.9

Here is another compound to look at.
Consider NCCNc1ccc(NCCN)c2c1C(=O)c1ccccc1C2=O . Its measured Activity is -1.1
